- System: TGF-β-stimulated SMAD3 phosphorylation in BEAS-2B cells
- run description: Cellular ALK5 potency assay, inhibition of TGF-β stimulated pSMAD3 formation in BEAS-2B cells
- Type: cell-based
- condition parameters: Homo sapiens, pSMAD3, TGF-β 10 ng/mL, read-out: BEAS2B pIC50 (converted)
measure: IC50

> print(dat)
                                   compound                         system.under.test  experimental.result
1  Cc1cccc(-c2nccc(Nc3ccnc(Nc4cccc(C(=O)OC5CNC5)c4)n3)n2)n1 [Compound 260]  TGF-β-stimulated SMAD3 phosphorylation in BEAS-2B cells       25.1 to 158 nM
2  Cc1cccc(-c2nccc(Nc3ccnc(Nc4cccc(NC(=O)NC5CNC5)c4)n3)n2)n1 [Compound 125]  TGF-β-stimulated SMAD3 phosphorylation in BEAS-2B cells       25.1 to 158 nM
3  Cc1cccc(-c2nccc(Nc3ccnc(Nc4ccc(-c5cnn(CCO)c5)cc4)n3)n2)n1 [Compound 36]  TGF-β-stimulated SMAD3 phosphorylation in BEAS-2B cells       25.1 to 158 nM

Would you kindly look at the next entry?
# IC50 of Cc1cccc(-c2nc(Nc3ccnc(Nc4ccc(C(=O)O)cn4)n3)c3cccn3n2)n1 [Compound 1020] = 200 to 1260 nM

* * *

Field: IC50. Provide a value for each of the compounds that follow.
- Tested on: TGF-β-stimulated SMAD3 phosphorylation in BEAS-2B cells
- run description: Cellular ALK5 potency assay, inhibition of TGF-β stimulated pSMAD3 formation in BEAS-2B cells
- Format: cell-based
- condition parameters: Homo sapiens, pSMAD3, TGF-β 10 ng/mL, read-out: BEAS2B pIC50 (converted)

Would you please look over these solved cases?
> print(dat)
                                   compound  experimental.result
1  Cc1cccc(-c2nccc(Nc3ccnc(Nc4ccc(N5CCSCC5)cc4)n3)n2)n1   0.0251 to 0.158 µM
2  Cc1cccc(-c2nccc(Nc3ccnc(Nc4ccc(N5CCN(C6CNC6)CC5)cc4)n3)n2)n1       0.2 to 1.26 µM
3  Cc1cccc(-c2nccc(Nc3ccnc(Nc4ccc(C(=O)O[C@@H]5CCN(C)C5)cc4)n3)n2)n1   0.0251 to 0.158 µM

Cc1cccc(-c2nccc(Nc3ccnc(Nc4ccc(N5CCC(N)C5)cc4)n3)n2)n1 (stereo not shown) yielded IC50 of 0.0251 to 0.158 µM

* * *

- System: TGF-β-stimulated SMAD3 phosphorylation in BEAS-2B cells
- run description: Cellular ALK5 potency assay, inhibition of TGF-β stimulated pSMAD3 formation in BEAS-2B cells
- Type: cell-based
- condition parameters: Homo sapiens, pSMAD3, TGF-β 10 ng/mL, read-out: BEAS2B pIC50 (converted)
Exercise: state measured IC50 for each of the molecules provided.

Some entries whose results are on file:
> print(dat)
                                   molecule  measure  experimental.result
1  COC(=O)[C@@H]1CN(c2ccc(Nc3nccc(Nc4ccnc(-c5cccc(C)n5)n4)n3)cc2)CCN1     IC50       25.1 to 158 nM
2  Cc1cccc(-c2nccc(Nc3ccnc(Nc4ccc(CN5CCC(C(=O)OC6CCN(C)C6)CC5)cc4)n3)n2)n1 (stereo not shown)     IC50       25.1 to 158 nM
3  Cc1cccc(-c2nccc(Nc3ccnc(Nc4ccc(N5CCC(N6CCCC6)CC5)cc4)n3)n2)n1     IC50       25.1 to 158 nM

Then this molecule:
// Cc1cccc(-c2nccc(Nc3ccnc(Nc4nc(C(=O)OCC5CNC5)cs4)n3)n2)n1 : IC50 value = 200 to 1260 nM

// provenance: patent US20230399312A1
